Source listed as patent US6339070B1.

Tested on: non-transfected HCT116 cells
Format: cell-based
statedConditions: read-out: IC50 (concentration required to inhibit cell growth by 50%)
pIC50: −log10 of the molar value.
readout: pIC50

pIC50 reading for O=C(O)CC[C@H](NC(=O)Oc1ccc(N(CCCl)CCCl)cc1)C(=O)O : ~3.70
